Please respond with reported EC50 for every item in the list.
TARGET_SYSTEM: Uracil nucleotide/cysteinyl leukotriene receptor (Homo sapiens, UniProt Q13304)
Sequence (Q13304 whole entry): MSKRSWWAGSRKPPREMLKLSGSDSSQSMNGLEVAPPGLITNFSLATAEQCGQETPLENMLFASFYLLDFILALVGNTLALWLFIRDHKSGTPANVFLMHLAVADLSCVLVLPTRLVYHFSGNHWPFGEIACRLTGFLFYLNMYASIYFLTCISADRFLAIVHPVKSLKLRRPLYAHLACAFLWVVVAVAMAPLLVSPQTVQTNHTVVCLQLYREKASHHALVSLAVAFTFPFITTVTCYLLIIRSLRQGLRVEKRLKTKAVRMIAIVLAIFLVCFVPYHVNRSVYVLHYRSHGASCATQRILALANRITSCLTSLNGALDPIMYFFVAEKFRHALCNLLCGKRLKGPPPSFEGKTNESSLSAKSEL
ASSAY_METHOD_TEXT: Agonist activity at human GPR17 expressed in human 1321N1 cells assessed as induction of calcium mobilization after 1 hr by Oregon Green BAPTA-1/AM dye-based fluorescence assay
Format: functional, cell-based

{"GIVEN_SMILES": "O=C(O)CCc1c(C(=O)O)[nH]c2c(Cl)cccc12", "TARGET_SYSTEM": "Uracil nucleotide/cysteinyl leukotriene receptor (Homo sapiens, UniProt Q13304)", "ENDPOINT_RESULT": "> 30 µM"}
{"GIVEN_SMILES": "CCCCCOc1cc(Cl)cc2[nH]c(C(=O)O)c(CCC(=O)O)c12", "TARGET_SYSTEM": "Uracil nucleotide/cysteinyl leukotriene receptor (Homo sapiens, UniProt Q13304)", "ENDPOINT_RESULT": "≥ 10 µM"}
{"GIVEN_SMILES": "O=C(O)CCc1c(C(=O)O)[nH]c2c(Cl)cc(Cl)c(Cl)c12", "TARGET_SYSTEM": "Uracil nucleotide/cysteinyl leukotriene receptor (Homo sapiens, UniProt Q13304)", "ENDPOINT_RESULT": "> 30 µM"}
{"GIVEN_SMILES": "O=C(O)CCc1c(C(=O)O)[nH]c2c(F)c(-c3ccccc3)ccc12", "TARGET_SYSTEM": "Uracil nucleotide/cysteinyl leukotriene receptor (Homo sapiens, UniProt Q13304)", "ENDPOINT_RESULT": "3.01 µM"}
{"GIVEN_SMILES": "O=C(O)CCc1c(C(=O)O)[nH]c2cc(Oc3ccccc3)ccc12", "TARGET_SYSTEM": "Uracil nucleotide/cysteinyl leukotriene receptor (Homo sapiens, UniProt Q13304)", "ENDPOINT_RESULT": "0.27 µM"}
{"GIVEN_SMILES": "O=C(O)CCc1c(C(=O)O)[nH]c2cccc(Cl)c12", "TARGET_SYSTEM": "Uracil nucleotide/cysteinyl leukotriene receptor (Homo sapiens, UniProt Q13304)", "ENDPOINT_RESULT": "30 µM"}
{"GIVEN_SMILES": "COc1ccc2[nH]c(C(=O)O)c(CCC(=O)O)c2c1", "TARGET_SYSTEM": "Uracil nucleotide/cysteinyl leukotriene receptor (Homo sapiens, UniProt Q13304)", "ENDPOINT_RESULT": "> 30 µM"}
{"GIVEN_SMILES": "O=C(O)CCc1c(C(=O)O)[nH]c2c(Cl)ccc(Cl)c12", "TARGET_SYSTEM": "Uracil nucleotide/cysteinyl leukotriene receptor (Homo sapiens, UniProt Q13304)", "ENDPOINT_RESULT": "> 30 µM"}
{"GIVEN_SMILES": "Cn1c(C(=O)O)c(CCC(=O)O)c2c(Cl)cc(Cl)cc21", "TARGET_SYSTEM": "Uracil nucleotide/cysteinyl leukotriene receptor (Homo sapiens, UniProt Q13304)", "ENDPOINT_RESULT": "> 30 µM"}
{"GIVEN_SMILES": "O=C(O)CCc1c(C(=O)O)[nH]c2c(F)c(Cl)ccc12", "TARGET_SYSTEM": "Uracil nucleotide/cysteinyl leukotriene receptor (Homo sapiens, UniProt Q13304)", "ENDPOINT_RESULT": "7.9 µM"}

Respectfully, I request EC50 for each entry included below.
1. CCCCCCOc1ccc2c(CCC(=O)O)c(C(=O)O)[nH]c2c1
2. CCCCCCOc1cc(Cl)c2c(CCC(=O)O)c(C(=O)O)[nH]c2c1
3. O=C(O)CCc1c(C(=O)O)[nH]c2c(F)c(-c3cccs3)ccc12
4. O=C(O)CCc1c(C(=O)O)[nH]c2cc(-c3ccccc3)cc(-c3ccccc3)c12
5. O=C(O)CCc1c(C(=O)O)[nH]c2cc(F)cc(I)c12
6. O=C(O)CCc1c(C(=O)O)[nH]c2c(F)c(Br)ccc12
7. O=C(O)CCc1c(C(=O)O)[nH]c2c(F)c(-c3ccc(F)cc3)ccc12

["0.115 µM", "0.067 µM", "> 100 µM", "4.09 µM", "1.47 µM", "4.83 µM", "> 100 µM"]

Respectfully, I request EC50 for each entry included below.
1. O=C(O)CCc1c(C(=O)O)[nH]c2ccc(Cl)cc12
2. O=C(O)CCCc1c(C(=O)O)[nH]c2cc(Cl)cc(Cl)c12
3. O=C(O)CCc1c(C(=O)O)[nH]c2cc(Cl)cc(-c3ccc(F)cc3)c12
4. O=C(O)CCc1c(C(=O)O)[nH]c2cc(Br)cc(F)c12
5. O=C(O)CCc1c(C(=O)O)[nH]c2cc(I)cc(F)c12

1. > 30 µM
2. > 30 µM
3. 3.68 µM
4. 0.0279 µM
5. 0.0321 µM

Respectfully, I request EC50 for each entry included below.
1. COc1cccc2[nH]c(C(=O)O)c(CCC(=O)O)c12
2. O=C(O)CCc1c(C(=O)O)[nH]c2cc(-c3ccc(F)cc3)ccc12
3. O=C(O)CCc1c(C(=O)O)[nH]c2cccc(-c3ccccc3)c12
4. O=C(O)CCc1c(C(=O)O)[nH]c2cc(-c3cccs3)ccc12
5. Cc1cc(C)c2c(CCC(=O)O)c(C(=O)O)[nH]c2c1

1. > 100 µM
2. 4.02 µM
3. > 100 µM
4. 9.55 µM
5. 15.1 µM
